- Tested on: HIV-1 LTR-III G-quadruplex (FAM/TAMRA-labeled LTR-III)
- MEASUREMENT NOTES: FRET melting assay, LTR-III G4
- Type: binding
- MEASUREMENT CONTEXT: Table S1 primary screening, ligand:ODN 50:1, singlicate
- Description: To evaluate stabilizing properties of the ligands in a complex with oligodeoxyribonucleotides (ODNs) melting with fluorescence registration was used. […] Samples were analyzed using DTprime qPCR system (DNA-Technology LLC, Moscow, Russia). Fluorescence was registered by detection of FAM emission at 520 nm upon excitation at 495 nm in the temperature range of 30–95 °C with 1 °C/min gradient. […]
Measured LTR-III ΔTm of individual entries

Please review the entries below; each comes with its answer.
MOLECULE: COc1cc(O)ccc1C=C1N=C(C=Cc2c(F)c(F)nc(F)c2F)N(C)C1=O
LTR-III ΔTm: 0.8 °C
--
MOLECULE: CN1C(=O)C(=Cc2ccc(O)cc2)N=C1Cc1ccccc1
LTR-III ΔTm: -1.5 °C
--
MOLECULE: CC1=NC(=Cc2ccc(N3CCCCCC3)cc2)C(=O)N1C
LTR-III ΔTm: 0.2 °C
--
MOLECULE: CON1C(=O)C(=Cc2ccc(O)cc2)N=C1C
LTR-III ΔTm: 0.3 °C
--
MOLECULE: COC(=O)c1noc(C(=O)N2CCOCC2)c1-c1ccc(OC)cc1 [SA 561E]
LTR-III ΔTm: -0.7 °C

Now consider a different molecule.
Measured LTR-III ΔTm for this entry `CN1C=NC(=Cc2ccc(O)cc2)C1=O` on HIV-1 LTR-III G-quadruplex (FAM/TAMRA-labeled LTR-III): -0.4 °C

###

- System: HIV-1 LTR-III G-quadruplex (FAM/TAMRA-labeled LTR-III)
- MEASUREMENT NOTES: FRET melting assay, LTR-III G4
- Format: binding
- MEASUREMENT CONTEXT: Table S1 primary screening, ligand:ODN 50:1, singlicate
Measured LTR-III ΔTm of individual entries

COMPOUND: CC1=NC(=Cc2ccc(O)c(F)c2)C(=O)N1C
LTR-III ΔTm: -0.2 °C
--
COMPOUND: CCOC(=O)CN1C(=O)C(=Cc2ccc(O)cc2)N=C1C
LTR-III ΔTm: -0.2 °C
--
COMPOUND: CC(C)(C)[Si](Oc1ccc(/C=C/CO)cc1)(c1ccccc1)c1ccccc1
LTR-III ΔTm: 0.1 °C
--
COMPOUND: CCOC(=O)CN1C(=O)C(=Cc2ccccc2)N=C1C
LTR-III ΔTm: -1.3 °C
--
COMPOUND: CC1=NC(=Cc2ccnc3ccccc23)C(=O)N1C
LTR-III ΔTm: -0.1 °C
--
COMPOUND: COc1cc(/C=C2N=C(/C=C/c3ccncc3)N(C)C\2=O)c(OC)cc1O
LTR-III ΔTm: 1.5 °C
--
COMPOUND: CN1C(=O)C(=Cc2ccccc2)N=C1Nc1ccccc1
LTR-III ΔTm: -0.1 °C
--
COMPOUND: CCN(CC)c1ccc(C=C2N=C3C=CC=CN3C2=O)cc1
LTR-III ΔTm: -0.5 °C

Measured LTR-III ΔTm for this entry `CC1=NC(=Cc2ccc3cc(N4CCCC4)ccc3c2)C(=O)N1C` on HIV-1 LTR-III G-quadruplex (FAM/TAMRA-labeled LTR-III): 0.7 °C

Measured LTR-III ΔTm for this entry `CNC(=O)C(=Cc1ccc(C#N)cc1)N=P(c1ccccc1)(c1ccccc1)c1ccccc1` on HIV-1 LTR-III G-quadruplex (FAM/TAMRA-labeled LTR-III): 0 °C

Measured LTR-III ΔTm for this entry `CCC(=O)NC(=Cc1c[nH]c2ccccc12)C(=O)NC` on HIV-1 LTR-III G-quadruplex (FAM/TAMRA-labeled LTR-III): -0.1 °C

Measured LTR-III ΔTm for this entry CC1=NC(=Cc2cccs2)C(=O)N1C [M 1583.3] on HIV-1 LTR-III G-quadruplex (FAM/TAMRA-labeled LTR-III): 0.1 °C

Measured LTR-III ΔTm for this entry `COc1ccc(C=C2C(=O)N(C)C(C)=[N+]2C)cc1.O=S(=O)([O-])C(F)(F)F` on HIV-1 LTR-III G-quadruplex (FAM/TAMRA-labeled LTR-III): -0.2 °C

Measured LTR-III ΔTm for this entry COc1ccc(-c2c(C(=O)OC(C)C)noc2C(=O)NCc2ccccc2)cc1 [SA 341C] on HIV-1 LTR-III G-quadruplex (FAM/TAMRA-labeled LTR-III): -0.2 °C

Measured LTR-III ΔTm for this entry `CC1=NC(=Cc2ccc(Br)cc2)C(=O)N1Cc1ccccc1` on HIV-1 LTR-III G-quadruplex (FAM/TAMRA-labeled LTR-III): -0.6 °C

Measured LTR-III ΔTm for this entry COc1ccc(C=C2N=C(Nc3ccccc3)N(C)C2=O)cc1 [M 1944b] on HIV-1 LTR-III G-quadruplex (FAM/TAMRA-labeled LTR-III): -0.3 °C

Measured LTR-III ΔTm for this entry `CC(C)OC(=O)c1noc(C(=O)NCc2ccccc2)c1-c1ccc(N(C)C)cc1` on HIV-1 LTR-III G-quadruplex (FAM/TAMRA-labeled LTR-III): -0.6 °C

Measured LTR-III ΔTm for this entry `CC(=O)Oc1ccc(C=C2N=C(C=C(OC(=O)c3ccc(C)cc3)c3ccc(C)cc3)N(C)C2=O)cc1` on HIV-1 LTR-III G-quadruplex (FAM/TAMRA-labeled LTR-III): -0.6 °C

Measured LTR-III ΔTm for this entry COC(=O)c1noc(C(=O)N2CCCC2)c1-c1ccc(OC)cc1 [SA 561B] on HIV-1 LTR-III G-quadruplex (FAM/TAMRA-labeled LTR-III): -0.6 °C

###

- Test system: HIV-1 LTR-III G-quadruplex (FAM/TAMRA-labeled LTR-III)
- MEASUREMENT NOTES: FRET melting assay, LTR-III G4
- Type: binding
- MEASUREMENT CONTEXT: Table S1 primary screening, ligand:ODN 50:1, singlicate
RECORDED METRIC: LTR-III ΔTm (°C)
Give the number; °C is assumed, so skip it.

Please review the entries below; each comes with its answer.
MOL: CCC1=NC(=Cc2ccc(O[Si](c3ccccc3)(c3ccccc3)C(C)(C)C)cc2)C(=O)N1C
RECORDED NUMBER: -0.1
--
MOL: CC1=NC(=Cc2ccccc2O)C(=O)N1C
RECORDED NUMBER: 0.2
--
MOL: CN1C(=O)CN2C(=O)C(=Cc3ccc(O)cc3)N=C2C1=O
RECORDED NUMBER: -0.1

Value of measured LTR-III ΔTm for the entry `CC1=CC(C)(C)N(C)c2ccc(C=C3N=C(C)N(CCCCO)C3=O)cc21` : 0.2

Value of measured LTR-III ΔTm for the entry `CC1=NC(=Cc2ccccc2F)C(=O)N1C` : -0.2

###

- Tested on: HIV-1 LTR-III G-quadruplex (FAM/TAMRA-labeled LTR-III)
- MEASUREMENT NOTES: FRET melting assay, LTR-III G4
- Format: binding
- MEASUREMENT CONTEXT: Table S1 primary screening, ligand:ODN 50:1, singlicate
RECORDED METRIC: LTR-III ΔTm (°C)
Give the number; °C is assumed, so skip it.

Please review the entries below; each comes with its answer.
MOL: CC1=NC(=Cc2ccc(O[Si](c3ccccc3)(c3ccccc3)C(C)(C)C)c(O)c2)C(=O)N1C
RECORDED METRIC: LTR-III ΔTm
RECORDED NUMBER: 0.4

MOL: CCOC(=O)CN1C(=O)C(=Cc2ccc(OC)cc2)N=C1C
RECORDED METRIC: LTR-III ΔTm
RECORDED NUMBER: -0.2

MOL: COc1cc(/C=C/c2ccc(O)cc2OC)oc(=O)c1
RECORDED METRIC: LTR-III ΔTm
RECORDED NUMBER: 0.4

MOL: COc1cc(O)ccc1/C=C1\N=C(C(C)=O)N(C)C1=O
RECORDED METRIC: LTR-III ΔTm
RECORDED NUMBER: 1.3

MOL: CC1=NC(=Cc2cc(F)c(O)c(F)c2)C(=O)N1CCCC(=O)O
RECORDED METRIC: LTR-III ΔTm
RECORDED NUMBER: -0.3

Now consider a different molecule.
Value of measured LTR-III ΔTm for the entry `CCC1=NC(=Cc2ccc(O)cc2)C(=O)N1O` : -0.1
